Reported values of MIC for individual entries
# System: Mycobacterium tuberculosis
# experimental-protocol: Antimicrobial activity against multi drug-resistant Mycobacterium tuberculosis after 7 days by resazurin assay
# Assay type: functional
# experimental-parameters: 168 h
experimental-endpoint: MIC (mg/L)

item-smiles | test-system | experimental-endpoint | value-relation-sign | reported-value
COc1cc(NS(=O)(=O)c2ccc([N+](=O)[O-])cc2)ccc1-n1cnc(Cl)c1 | Mycobacterium tuberculosis | MIC | = | 6.25
COc1cc(NS(=O)(=O)c2ccccc2)ccc1-n1cnc(Cl)c1 | Mycobacterium tuberculosis | MIC | = | 25
COc1cc(NS(=O)(=O)c2cc(F)cc(C(F)(F)F)c2)ccc1-n1cnc(Cl)c1 | Mycobacterium tuberculosis | MIC | = | 6.25
COc1cc(F)c(S(=O)(=O)Nc2ccc(-n3cnc(Cl)c3)c(OC)c2)c(C(F)(F)F)c1 | Mycobacterium tuberculosis | MIC | = | 25
COc1cc(NS(=O)(=O)C2(c3ccc(Cl)cc3)CC2)ccc1-n1cnc(Cl)c1 | Mycobacterium tuberculosis | MIC | > | 50
NNC(=O)c1ccncc1 | Mycobacterium tuberculosis | MIC | = | 12.5
COc1cc(NS(=O)(=O)c2c(F)ccc(C(F)(F)F)c2Cl)ccc1-n1cnc(Cl)c1 | Mycobacterium tuberculosis | MIC | = | 6.25
COc1cc(NC(=O)Cc2cccc(C(F)(F)F)c2)ccc1-n1cnc(Cl)c1 | Mycobacterium tuberculosis | MIC | > | 50
COc1cc(NS(=O)(=O)c2ccc(Cl)cc2Cl)ccc1-n1cnc(Cl)c1 | Mycobacterium tuberculosis | MIC | > | 50
COc1cc(NC(=O)c2ccccc2)ccc1-n1cnc(Cl)c1 | Mycobacterium tuberculosis | MIC | = | 25
